Hello, the source for this data is patent US9580437B2, in case you need it.

assayedSystem: EED (1-441)-His protein (Homo sapiens (Human))
Sequence (O75530 whole entry): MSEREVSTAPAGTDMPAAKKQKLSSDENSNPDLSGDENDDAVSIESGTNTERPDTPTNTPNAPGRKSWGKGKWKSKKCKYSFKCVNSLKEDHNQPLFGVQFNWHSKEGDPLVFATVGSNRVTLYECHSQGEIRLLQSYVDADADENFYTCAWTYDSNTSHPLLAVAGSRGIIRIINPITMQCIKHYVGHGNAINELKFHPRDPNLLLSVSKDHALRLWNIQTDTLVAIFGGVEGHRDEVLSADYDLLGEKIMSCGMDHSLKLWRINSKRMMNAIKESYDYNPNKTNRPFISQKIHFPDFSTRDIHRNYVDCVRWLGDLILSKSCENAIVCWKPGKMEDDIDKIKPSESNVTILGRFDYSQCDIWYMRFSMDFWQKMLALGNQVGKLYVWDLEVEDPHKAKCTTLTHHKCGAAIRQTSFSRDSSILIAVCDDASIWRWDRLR
assayExplanation: EED-H3K27Me3 peptide competition binding assay by AlphaScreen
assayContext: read-out: (a) IC50 EED Alphascreen binding Qualified
valueType: IC50 (nM)
Record the value in nM, omitting the unit from your answer.

### Prompt Identify IC50 associated with the compound Cc1c(-c2cnc(NCc3c(F)ccc4c3CCO4)n3cnnc23)ccnc1CF [Example 182]
### Response 3.1

### Prompt Identify IC50 associated with the compound CN(C)C(=O)c1ccc(-c2cnc(NCc3c(F)ccc4c3CCO4)n3cnnc23)cn1 [Example 140]
### Response 12.7

### Prompt Identify IC50 associated with the compound Fc1ccc2c(c1CNc1ncc(-c3ccnnc3)c3nncn13)CCO2 [Example 202]
### Response 9.6

### Prompt Identify IC50 associated with the compound CN(C)CCc1ccc(-c2cnc(NCc3cccc4c3CCO4)n3cnnc23)cc1 [Example 35]
### Response 8.3

### Prompt Identify IC50 associated with the compound CC(O)c1ccc(-c2cnc(NCc3cccc4c3CCO4)n3cnnc23)cn1 (stereo not drawn) [Example 84]
### Response 6.3

### Prompt Identify IC50 associated with the compound Cn1cc(-c2cnc(NCc3cccc4c3CCO4)n3cnnc23)cn1 [Example 25]
### Response 30.7

### Prompt Identify IC50 associated with the compound Fc1ccc2c(c1CNc1ncc(-c3cccnc3)c3nncn13)CCO2 [Example 44]
### Response 12.8

### Prompt Identify IC50 associated with the compound FCc1ncccc1-c1cnc(NCc2c(F)ccc3c2CCO3)n2cnnc12 [Example 193]
### Response 4

### Prompt Identify IC50 associated with the compound O=C(c1ccc(-c2cnc(NCc3c(F)ccc4c3CCO4)n3cnnc23)cn1)N1CCCC1 [Example 129]
### Response 3.9

### Prompt Identify IC50 associated with the compound CCNC(=O)c1ccc(-c2cnc(NCc3cccc4c3CCO4)n3cnnc23)cn1 [Example 114]
### Response 15.4

### Prompt Identify IC50 associated with the compound Cc1ccc(-c2cnc(NCc3c(F)ccc4c3CCO4)n3cnnc23)c(C)n1 [Example 167]
### Response 3.3

### Prompt Identify IC50 associated with the compound O=C(c1ccc(-c2cnc(NCc3cccc4c3CCO4)n3cnnc23)cn1)N1CCOCC1 [Example 68]
### Response 19.7

### Prompt Identify IC50 associated with the compound Cc1nn(C(C)C)c(C)c1-c1cnc(NCc2c(F)ccc3c2CCO3)n2cnnc12 [Example 151]
### Response 13.1

### Prompt Identify IC50 associated with the compound CC(c1ccc(-c2cnc(NCc3cccc4occc34)n3cnnc23)cc1)N1CCCC1 (stereo not drawn) [Example 210]
### Response 18.5

### Prompt Identify IC50 associated with the compound Cc1nc(N)ccc1-c1cnc(NCc2c(F)ccc3c2CCO3)n2cnnc12 [Example 156]
### Response 4

### Prompt Identify IC50 associated with the compound Cc1c(-c2cnc(NCc3c(F)ccc4c3CCO4)n3cnnc23)cnn1CCO [Example 189]
### Response 4.2

### Prompt Identify IC50 associated with the compound Fc1ccc(-c2cnc(NCc3c(F)ccc4c3CCO4)n3cnnc23)c(Cl)c1 [Example 157]
### Response 22.3

### Prompt Identify IC50 associated with the compound CS(=O)(=O)CCCOc1cncc(-c2cnc(NCc3cccc4c3CCO4)n3cnnc23)c1 [Example 98]
### Response 21.7

====

Field: pIC50. Provide a value for each of the compounds that follow.
FYI, pIC50 means -log10 of a concentration in mol per litre.

### Prompt State recorded pIC50 with EED (1-441)-His protein (Homo sapiens (Human)), entry Cc1nn(C[C@H](C)O)c(C)c1-c1cnc(NCc2c(F)ccc3c2CCO3)n2cnnc12 [Example 187] , no comment.
### Response 8.09

### Prompt State recorded pIC50 with EED (1-441)-His protein (Homo sapiens (Human)), entry COCCc1ccc(-c2cnc(NCc3cccc4c3CCO4)n3cnnc23)cn1 [Example 86] , no comment.
### Response 7.95

### Prompt State recorded pIC50 with EED (1-441)-His protein (Homo sapiens (Human)), entry Cc1ncc(-c2cnc(NCc3cccc4c3CCO4)n3cnnc23)cn1 [Example 60] , no comment.
### Response 7.71

### Prompt State recorded pIC50 with EED (1-441)-His protein (Homo sapiens (Human)), entry COc1ncc(-c2cnc(NCc3c(F)ccc4c3CCO4)n3cnnc23)cn1 [Example 174] , no comment.
### Response 8.33

### Prompt State recorded pIC50 with EED (1-441)-His protein (Homo sapiens (Human)), entry CN(C)Cc1ccc(-c2cnc(NCc3c(F)ccc4occc34)n3cnnc23)cc1 [Example 219] , no comment.
### Response 8.19

### Prompt State recorded pIC50 with EED (1-441)-His protein (Homo sapiens (Human)), entry Cc1nn(C2CC2)c(C)c1-c1cnc(NCc2c(F)ccc3c2CCO3)n2cnnc12 [Example 179] , no comment.
### Response 7.91

### Prompt State recorded pIC50 with EED (1-441)-His protein (Homo sapiens (Human)), entry CN(C)C(=O)c1ccc(-c2cnc(NCc3cccc4c3CCO4)n3cnnc23)cc1 [Example 42] , no comment.
### Response 7.28

### Prompt State recorded pIC50 with EED (1-441)-His protein (Homo sapiens (Human)), entry O=C1OCCN1c1ccc(-c2cnc(NCc3cccc4c3CCO4)n3cnnc23)cn1 [Example 117] , no comment.
### Response 7.63

====

assayedSystem: wild type PRC2 (wtPRC2) complex (Homo sapiens (Human), UniProt O75530)
Sequence (O75530 whole entry): as above
Sequence (Q15910 whole entry partner): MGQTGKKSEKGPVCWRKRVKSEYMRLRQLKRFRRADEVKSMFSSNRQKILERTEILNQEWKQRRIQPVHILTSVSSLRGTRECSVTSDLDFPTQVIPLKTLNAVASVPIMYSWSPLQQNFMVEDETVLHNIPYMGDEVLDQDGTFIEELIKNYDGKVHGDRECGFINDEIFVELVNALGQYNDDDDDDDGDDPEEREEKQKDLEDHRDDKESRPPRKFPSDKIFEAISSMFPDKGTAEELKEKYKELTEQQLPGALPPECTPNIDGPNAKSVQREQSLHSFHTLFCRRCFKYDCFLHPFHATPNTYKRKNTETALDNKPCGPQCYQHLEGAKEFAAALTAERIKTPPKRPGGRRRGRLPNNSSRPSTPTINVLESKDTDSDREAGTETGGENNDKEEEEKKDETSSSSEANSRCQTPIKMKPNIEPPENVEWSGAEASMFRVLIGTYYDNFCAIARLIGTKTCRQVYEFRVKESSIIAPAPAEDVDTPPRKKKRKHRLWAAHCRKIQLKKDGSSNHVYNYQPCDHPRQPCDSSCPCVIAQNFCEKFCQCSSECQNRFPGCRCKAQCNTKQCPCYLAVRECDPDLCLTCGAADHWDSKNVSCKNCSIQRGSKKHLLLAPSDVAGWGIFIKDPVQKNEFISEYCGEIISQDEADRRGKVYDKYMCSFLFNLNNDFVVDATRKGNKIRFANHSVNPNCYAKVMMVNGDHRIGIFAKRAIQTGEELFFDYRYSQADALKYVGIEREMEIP
Sequence (Q15022 whole entry partner): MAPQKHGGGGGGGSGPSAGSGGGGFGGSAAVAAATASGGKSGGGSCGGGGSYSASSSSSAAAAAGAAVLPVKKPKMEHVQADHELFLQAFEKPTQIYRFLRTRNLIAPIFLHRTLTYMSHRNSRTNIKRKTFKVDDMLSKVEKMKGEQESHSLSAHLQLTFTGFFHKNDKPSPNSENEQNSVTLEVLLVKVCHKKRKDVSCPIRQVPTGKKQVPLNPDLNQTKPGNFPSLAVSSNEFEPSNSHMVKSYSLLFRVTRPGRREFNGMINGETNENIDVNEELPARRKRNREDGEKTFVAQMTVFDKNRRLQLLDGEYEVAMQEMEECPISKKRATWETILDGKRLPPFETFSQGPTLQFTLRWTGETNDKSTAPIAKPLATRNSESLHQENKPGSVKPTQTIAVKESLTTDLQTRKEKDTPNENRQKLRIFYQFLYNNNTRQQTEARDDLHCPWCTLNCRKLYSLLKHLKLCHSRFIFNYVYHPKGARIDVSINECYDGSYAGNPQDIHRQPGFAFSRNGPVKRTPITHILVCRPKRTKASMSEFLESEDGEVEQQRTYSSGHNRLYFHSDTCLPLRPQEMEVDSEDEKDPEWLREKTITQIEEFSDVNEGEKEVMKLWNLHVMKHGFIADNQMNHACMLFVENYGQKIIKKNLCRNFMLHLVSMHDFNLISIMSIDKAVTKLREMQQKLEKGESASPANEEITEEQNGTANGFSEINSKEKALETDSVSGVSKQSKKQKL
assayExplanation: EED LC-MS assay
Format: biochemical
assayContext: read-out: (b) IC50 EED LC-MS Qualified
valueType: IC50 (µM)
Record the value in µM, omitting the unit from your answer.

### Prompt Identify IC50 associated with the molecule "CS(=O)(=O)CCOc1ccc(-c2cnc(NCc3cccc4c3CCO4)n3cnnc23)cc1"
### Response 0.0375

### Prompt Identify IC50 associated with the molecule "O=S(=O)(NCCO)c1ccc(-c2cnc(NCc3cccc4c3CCO4)n3cnnc23)cc1"
### Response 0.0566

### Prompt Identify IC50 associated with the molecule "CN1CCN(c2ccc(-c3cnc(NCc4cccc5c4CCO5)n4cnnc34)cn2)CC1"
### Response 0.0171

### Prompt Identify IC50 associated with the molecule "CC(C)(O)c1ccc(-c2cnc(NCc3cccc4c3CCO4)n3cnnc23)cn1"
### Response 0.0067

### Prompt Identify IC50 associated with the molecule "CC(=O)N1CCN(CCc2ccc(-c3cnc(NCc4cccc5c4CCO5)n4cnnc34)cn2)CC1"
### Response 0.011

### Prompt Identify IC50 associated with the molecule "O=CN1CCN(CCc2ccc(-c3cnc(NCc4cccc5c4CCO5)n4cnnc34)cn2)CC1"
### Response 0.025

### Prompt Identify IC50 associated with the molecule "O=C1CNCCN1c1ccc(-c2cnc(NCc3cccc4c3CCO4)n3cnnc23)cn1"
### Response 0.0234

### Prompt Identify IC50 associated with the molecule "Cc1c(-c2cnc(NCc3c(F)ccc4c3CCO4)n3cnnc23)ccnc1C(F)F"
### Response 0.006

====

assayedSystem: wild type PRC2 (wtPRC2) complex (Homo sapiens (Human), UniProt O75530)
assayExplanation: EED LC-MS assay
assayContext: read-out: (b) IC50 EED LC-MS Qualified
Field: IC50. Provide a value for each of the compounds that follow.
Record the value in nM, omitting the unit from your answer.

### Prompt Identify IC50 associated with the compound "COCc1cc(-c2cnc(NCc3cccc4c3CCO4)n3cnnc23)cnc1C"
### Response 29.6

### Prompt Identify IC50 associated with the compound "FC(F)Oc1ccc(-c2cnc(NCc3cccc4c3CCO4)n3cnnc23)cn1"
### Response 160

### Prompt Identify IC50 associated with the compound "CNC(=O)c1ccc(-c2cnc(NCc3cccc4c3CCO4)n3cnnc23)cn1"
### Response 103

### Prompt Identify IC50 associated with the compound "Cc1cnc(F)cc1-c1cnc(NCc2c(F)ccc3c2CCO3)n2cnnc12"
### Response 8.1

### Prompt Identify IC50 associated with the compound "Cc1nc(CN(C)C)ccc1-c1cnc(NCc2c(F)ccc3c2CCO3)n2cnnc12"
### Response 18.4

### Prompt Identify IC50 associated with the compound "Fc1ccc2c(c1CNc1ncc(-n3cccn3)c3nncn13)CCO2"
### Response 10

### Prompt Identify IC50 associated with the compound "COc1cc(-c2cnc(NCc3c(F)ccc4c3CCO4)n3cnnc23)ccn1"
### Response 11.8

### Prompt Identify IC50 associated with the compound "O=C(c1ccc(-c2cnc(NCc3c(F)ccc4c3CCO4)n3cnnc23)cn1)N1CCCC1"
### Response 8.4

### Prompt Identify IC50 associated with the compound "Cc1cc(-c2cnc(NCc3cccc4c3CCO4)n3cnnc23)cnc1N1CCN(C)CC1"
### Response 22.4

### Prompt Identify IC50 associated with the compound "Fc1ccc2c(c1CNc1ncc(-c3cccnc3C(F)F)c3nncn13)CCO2"
### Response 11.2

### Prompt Identify IC50 associated with the compound "Cc1cc(C2CC2)ncc1-c1cnc(NCc2c(F)ccc3c2CCO3)n2cnnc12"
### Response 7.7

### Prompt Identify IC50 associated with the compound "CN1CCN(c2ccc(-c3cnc(NCc4cccc5occc45)n4cnnc34)cn2)CC1"
### Response 28.8

### Prompt Identify IC50 associated with the compound "COc1nccc(-c2cnc(NCc3c(F)ccc4c3CCO4)n3cnnc23)c1C"
### Response 24.5

### Prompt Identify IC50 associated with the compound "CCn1nccc1-c1cnc(NCc2c(F)ccc3c2CCO3)n2cnnc12"
### Response 31.5

### Prompt Identify IC50 associated with the compound "N#Cc1ccc(-c2cnc(NCc3c(F)ccc4c3CCO4)n3cnnc23)cn1"
### Response 12.5

### Prompt Identify IC50 associated with the compound "Fc1ccc2c(c1CNc1ncc(-c3cccnc3F)c3nncn13)CCO2"
### Response 6.9

### Prompt Identify IC50 associated with the compound "OCc1ncccc1-c1cnc(NCc2c(F)ccc3c2CCO3)n2cnnc12"
### Response 9.3

### Prompt Identify IC50 associated with the compound "Nc1ccncc1-c1cnc(NCc2cccc3c2CCO3)n2cnnc12"
### Response 56.9

### Prompt Identify IC50 associated with the compound "Cc1cc(-c2cnc(NCc3c(F)ccc4c3CCO4)n3cnnc23)c(C)cn1"
### Response 7

### Prompt Identify IC50 associated with the compound "Cc1cc(-c2cnc(NCc3cccc4c3CCO4)n3cnnc23)cnc1S(C)(=O)=O"
### Response 21.1

### Prompt Identify IC50 associated with the compound "COc1ccc(-c2cnc(NCc3c(F)ccc4c3CCO4)n3cnnc23)c(C)n1"
### Response 45.3

### Prompt Identify IC50 associated with the compound OCc1ncccc1-c1cnc(NCc2c(F)ccc3c2C(O)CO3)n2cnnc12 (centres unmarked)
### Response 59

### Prompt Identify IC50 associated with the compound "Cc1c(-c2cnc(NCc3c(F)ccc4c3CCO4)n3cnnc23)cnn1C"
### Response 7.1

### Prompt Identify IC50 associated with the compound "FC(F)c1ccc(-c2cnc(NCc3cccc4c3CCO4)n3cnnc23)cn1"
### Response 36.9

### Prompt Identify IC50 associated with the compound "Fc1ccc2c(c1CNc1ncc(-c3ccncc3)c3nncn13)CCO2"
### Response 32.8

### Prompt Identify IC50 associated with the compound "Cc1nn(C[C@@H](C)O)c(C)c1-c1cnc(NCc2c(F)ccc3c2CCO3)n2cnnc12"
### Response 6

### Prompt Identify IC50 associated with the compound "CN(C)Cc1ccc(-c2cnc(NCc3c(F)ccc4occc34)n3cnnc23)cc1"
### Response 6.8

### Prompt Identify IC50 associated with the compound "COc1cc(F)c(-c2cnc(NCc3c(F)ccc4c3CCO4)n3cnnc23)cn1"
### Response 9.8

### Prompt Identify IC50 associated with the compound "c1cc(CNc2ncc(-c3ccc(N4CCSCC4)nc3)c3nncn23)c2c(c1)OCC2"
### Response 19.1

### Prompt Identify IC50 associated with the compound "CN(C)CCc1cccc(-c2cnc(NCc3cccc4c3CCO4)n3cnnc23)c1"
### Response 10.3

### Prompt Identify IC50 associated with the compound "Cc1noc(C)c1-c1cnc(NCc2c(F)ccc3c2CCO3)n2cnnc12"
### Response 18.9

### Prompt Identify IC50 associated with the compound "CC(=O)NCc1ccc(-c2cnc(NCc3c(F)ccc4c3CCO4)n3cnnc23)cn1"
### Response 7.3

### Prompt Identify IC50 associated with the compound "Fc1ccc2c(c1CNc1ncc(-n3cncn3)c3nncn13)CCO2"
### Response 30

### Prompt Identify IC50 associated with the compound "Cc1cnc(Cl)cc1-c1cnc(NCc2c(F)ccc3c2CCO3)n2cnnc12"
### Response 9

### Prompt Identify IC50 associated with the compound "CN1CCN(c2ccc(-c3cnc(NCc4cccc5occc45)n4cnnc34)cc2)CC1"
### Response 29
